Test system: MDA-MB-436
Protocol text: normalised response (% of control), CellTiter-Glo; higher = more viable cells (100 = DMSO, 0 = benzethonium chloride kill control)
Run parameters: incubation time: 72 h
Classes by normalised response: category 1 (below 60%), category 2 (60% to below 90%), category 3 (90% or more)

Study these solved cases before continuing.
1. Clc1ccc(C(c2ccccc2Cl)C(Cl)Cl)cc1 (stereo not given) [Mitotane] (10000 nM) | category 3
2. C=CCNC1=C2C[C@@H](C)C[C@H](OC)[C@H](O)[C@@H](C)/C=C(\C)[C@H](OC(N)=O)[C@@H](OC)/C=C\C=C(/C)C(=O)NC(=CC1=O)C2=O [Tanespimycin] (10000 nM) | category 1
3. CN(C)C/C=C/C(=O)Nc1cc2c(Nc3ccc(F)c(Cl)c3)ncnc2cc1O[C@H]1CCOC1 [Afatinib] (1000 nM) | category 3
4. CS(=O)(=O)c1ccc(C(=O)Nc2ccc(Cl)c(-c3ccccn3)c2)c(Cl)c1 [Vismodegib] (10000 nM) | category 3

Dear colleague, I would appreciate it if you could identify the bin for CO[C@H]1C[C@@H]2CC[C@@H](C)[C@@](O)(O2)C(=O)C(=O)N2CCCC[C@H]2C(=O)O[C@H]([C@H](C)C[C@@H]2CC[C@@H](OC(=O)C(C)(CO)CO)[C@H](OC)C2)CC(=O)[C@H](C)/C=C(\C)[C@@H](O)[C@@H](OC)C(=O)[C@H](C)C[C@H](C)/C=C/C=C/C=C/1C [Temsirolimus] (100 nM) and reply at your convenience.
category 2

Classify this compound: COc1cccc2c1C(=O)c1c(O)c3c(c(O)c1C2=O)C[C@@](O)(C(=O)CO)C[C@@H]3O[C@H]1C[C@H](N)[C@H](O)[C@H](C)O1 [Doxorubicin] (1000 nM)
category 1

Please let me know in which category the item CN1CC[C@H](c2c(O)cc(O)c3c(=O)cc(-c4ccccc4Cl)oc23)[C@H](O)C1 [Alvocidib] (10000 nM) belongs.
category 1

Textbook exercise: identify the category of the compound given here, Nc1nc(Cl)nc2c1ncn2[C@H]1C[C@H](O)[C@@H](CO)O1 [Cladribine] (1000 nM) , according to its measured value.
category 2

----------
System: CAL-148
Protocol text: normalised viability (% of control), CellTiter-Blue; higher = more viable cells (about 100 = DMSO control)
Run parameters: incubation time: 72 h
Just a reminder that ties go to no: only normalised viability strictly below 40% counts as yes.

Solved cases (2 shown):
1) Cc1ccc(F)c(NC(=O)Nc2ccc(-c3cccc4[nH]nc(N)c34)cc2)c1 [Linifanib] (100 nM) | no
2) Nc1ccn([C@@H]2O[C@H](CO)[C@@H](O)[C@@H]2O)c(=O)n1 [Cytarabine] (1000 nM) | no

# TODO verify normalised viability < 40% strictly for this compound: C[C@]1(c2nc3c(C(N)=O)cccc3[nH]2)CCCN1 [Veliparib] (1000 nM)
no

I wonder whether Cc1c2oc3c(C)ccc(C(=O)N[C@@H]4C(=O)N[C@H](C(C)C)C(=O)N5CCC[C@H]5C(=O)N(C)CC(=O)N(C)[C@@H](C(C)C)C(=O)O[C@@H]4C)c3nc-2c(C(=O)N[C@@H]2C(=O)N[C@H](C(C)C)C(=O)N3CCC[C@H]3C(=O)N(C)CC(=O)N(C)[C@@H](C(C)C)C(=O)O[C@@H]2C)c(N)c1=O [Dactinomycin] (100 nM) has normalised viability below 40%. Can you tell?
yes
